assay: soluble on expression in E. coli; label from the status in PepcDB or PDB records
parameter: soluble on expression in E. coli

{"sequence_chain": "KRIVLGVGGGIAAYKSAELVRRLRDQGAEVRVVMTQGGREFITPLTLQALSGHPVHTDLLDPAAEAAMGHIELARWADLVLIAPATADLMARLVQGVANDLLTTLVLATDAQIALAPAMNQAMWRDTATQANAELLRQRGFHLFGPAAGSQACGDVGLGRMLEAEELAQRAADCFQRQALTGVHVLITAGPTQENIDPVRYITNHSSGKMGFALAEAAVEAGARVTLVTGPVHLPTPDRVQRVDVVSARDMLAACEAAMPCDLLIASAAVADYRPEVVAAHKLKKDPTSGEGLLLQLVRNPDILATLAQREDRPFSVGFAAETENLLDYAARKLKDKNLDLIVANDVANPSIGFNSDENAITVIDRDLHPSTFAQTSKGKIARQLVAFIAD", "soluble on expression in E. coli": "not soluble"}
{"sequence_chain": "MALKKHNVFVFSSNYTLYGDMSQRVMNTLAEFTPEIEVYSIDESFLNFEGFELLGDLKIYGTTIRNTVFRNTGIPVSIGIAPTKALAKLSNRIAKKNKEYNHVCVLEHHHHHH", "soluble on expression in E. coli": "not soluble"}
{"sequence_chain": "PSEIFYQAKVREQKERHARYHDTTYNLEPDIKSTPGGLRDIHTLSWVARRHFGATSLYEMSRFGFLTDAEYRELVECQDFLWRVRFALHIELKRYDNRLTFAHQVQVARHLGYFGEGNRGIEMMMKEFFRTLRRVAELNKMLLKIFDKAILNNGEEAEAVIIDDDFQRRGNMIEARKPALFQARPETILDMFLHMASDSTIESVAPATMRQLRTARRRLN", "soluble on expression in E. coli": "not soluble"}
{"sequence_chain": "GPGSMLKCSLCYLASKVTAGNAKNQAGHPRRRAKLFHVVPGTPVTPFEKLKEQRRRFGQDRHSRLPEYRPGNNVRMDPNTYTLYATKKGVMTIRESRINPKYKWLDVEPDIQKVYRSRELRRALQEREMASMAVGENSNYRVELDLLLEPDWRERVMHVPKATERFKDPNLFTRGVVNELSPLDRYSYT", "soluble on expression in E. coli": "not soluble"}
{"sequence_chain": "ITELTNIHLIKGNLQANSKNEVFAELAQMLLENNRISNKEDFLNDIEIRERLSVTSMDGIAYPHSKSKAVTKPAIAVGVKHEGIEYGDEEGIKPTVFFMIASPDNGADHHIYVLQELFGKFSEEFIEDIHNAKNEHQILNISIQS", "soluble on expression in E. coli": "soluble"}

The sequence QTVVTGKVIDSETSEPLIGVSVSTGQGASLRGVTTDMDGGFRFEVPAKSVLTFRCVGYATVTRSIGRGSQEDLGTILLDPQAIGLDEIQVIASVVPKDRMTPVPVSNIRVADIQAASLNVEFPELVKSTPSTYTTKGSGGFGDGRTNVRGFDTYNFGVLINGVPVNGMEDGKVYWSNWSGLMNQASTIQIQRGLGASKLGISSVGGTMNIITKTTDANTGGSAYVGMGNDGLHKESFSISTGMND showed soluble on expression in E. coli equal to not soluble

MSPIDQVLAAACALDASGKAPSLALIKSRLGNKFPMPILIQGLQQFKSMPKAERERLAALSIPEVEEQKPTEPVPLSVTTLAAQLTELQKGFEQAIALKNTEIMQLTNELIELKQRVNQLELQGKSV has a reported soluble on expression in E. coli of soluble
